- Test system: RKO
- Assay Info: Antiproliferative activity against human RKO cells assessed as cell viability incubated for 72 hrs by MTT assay
- Format: functional, cell-based
IC50 vs 700 nM: less than gives class 1; not less than gives class 0.

Below, 5 compounds whose answers are already recorded.
- Line Notation: "COc1ccc(N(C)c2nc(/C=C/c3ccccc3)nc3ccccc23)cc1"
  Discrete Label: "class 1"
- Line Notation: "COc1cc(N(C)c2nc(/C=C/c3ccccc3)nc3ccccc23)cc(OC)c1OC"
  Discrete Label: "class 0"
- Line Notation: "COc1ccc(/C=C/c2nc(N(C)c3ccc(OC)cc3)c3ccccc3n2)cc1"
  Discrete Label: "class 0"
- Line Notation: "COc1ccc(N(C)c2nc(/C=C/c3cccc(OC)c3)nc3ccccc23)cc1"
  Discrete Label: "class 1"
- Line Notation: "COc1ccc(N(C)c2nc(/C=C/c3cccc(F)c3)nc3cccc(F)c23)cc1"
  Discrete Label: "class 1"

Exercise: Strictly below 700 nM in IC50? "CN(c1ccc(C(F)(F)F)cc1)c1nc(/C=C/c2ccccc2)nc2ccccc12"
Solution: class 0

Exercise: Strictly below 700 nM: is that where IC50 of "O=c1[nH]cc(F)c(=O)[nH]1" sits?
Solution: class 0

Exercise: Report whether reported IC50 is lower than 700 nM (strictly) for "CN(c1ccc(F)cc1)c1nc(/C=C/c2ccccc2)nc2ccccc12"
Solution: class 1
